inhibition at 0.1 µM values for the molecules below.
- TARGET_SYSTEM: N-type calcium channel (Homo sapiens, UniProt Q00975)
- Construct: expressed in transfected cells
- Sequence (Q00975 whole entry): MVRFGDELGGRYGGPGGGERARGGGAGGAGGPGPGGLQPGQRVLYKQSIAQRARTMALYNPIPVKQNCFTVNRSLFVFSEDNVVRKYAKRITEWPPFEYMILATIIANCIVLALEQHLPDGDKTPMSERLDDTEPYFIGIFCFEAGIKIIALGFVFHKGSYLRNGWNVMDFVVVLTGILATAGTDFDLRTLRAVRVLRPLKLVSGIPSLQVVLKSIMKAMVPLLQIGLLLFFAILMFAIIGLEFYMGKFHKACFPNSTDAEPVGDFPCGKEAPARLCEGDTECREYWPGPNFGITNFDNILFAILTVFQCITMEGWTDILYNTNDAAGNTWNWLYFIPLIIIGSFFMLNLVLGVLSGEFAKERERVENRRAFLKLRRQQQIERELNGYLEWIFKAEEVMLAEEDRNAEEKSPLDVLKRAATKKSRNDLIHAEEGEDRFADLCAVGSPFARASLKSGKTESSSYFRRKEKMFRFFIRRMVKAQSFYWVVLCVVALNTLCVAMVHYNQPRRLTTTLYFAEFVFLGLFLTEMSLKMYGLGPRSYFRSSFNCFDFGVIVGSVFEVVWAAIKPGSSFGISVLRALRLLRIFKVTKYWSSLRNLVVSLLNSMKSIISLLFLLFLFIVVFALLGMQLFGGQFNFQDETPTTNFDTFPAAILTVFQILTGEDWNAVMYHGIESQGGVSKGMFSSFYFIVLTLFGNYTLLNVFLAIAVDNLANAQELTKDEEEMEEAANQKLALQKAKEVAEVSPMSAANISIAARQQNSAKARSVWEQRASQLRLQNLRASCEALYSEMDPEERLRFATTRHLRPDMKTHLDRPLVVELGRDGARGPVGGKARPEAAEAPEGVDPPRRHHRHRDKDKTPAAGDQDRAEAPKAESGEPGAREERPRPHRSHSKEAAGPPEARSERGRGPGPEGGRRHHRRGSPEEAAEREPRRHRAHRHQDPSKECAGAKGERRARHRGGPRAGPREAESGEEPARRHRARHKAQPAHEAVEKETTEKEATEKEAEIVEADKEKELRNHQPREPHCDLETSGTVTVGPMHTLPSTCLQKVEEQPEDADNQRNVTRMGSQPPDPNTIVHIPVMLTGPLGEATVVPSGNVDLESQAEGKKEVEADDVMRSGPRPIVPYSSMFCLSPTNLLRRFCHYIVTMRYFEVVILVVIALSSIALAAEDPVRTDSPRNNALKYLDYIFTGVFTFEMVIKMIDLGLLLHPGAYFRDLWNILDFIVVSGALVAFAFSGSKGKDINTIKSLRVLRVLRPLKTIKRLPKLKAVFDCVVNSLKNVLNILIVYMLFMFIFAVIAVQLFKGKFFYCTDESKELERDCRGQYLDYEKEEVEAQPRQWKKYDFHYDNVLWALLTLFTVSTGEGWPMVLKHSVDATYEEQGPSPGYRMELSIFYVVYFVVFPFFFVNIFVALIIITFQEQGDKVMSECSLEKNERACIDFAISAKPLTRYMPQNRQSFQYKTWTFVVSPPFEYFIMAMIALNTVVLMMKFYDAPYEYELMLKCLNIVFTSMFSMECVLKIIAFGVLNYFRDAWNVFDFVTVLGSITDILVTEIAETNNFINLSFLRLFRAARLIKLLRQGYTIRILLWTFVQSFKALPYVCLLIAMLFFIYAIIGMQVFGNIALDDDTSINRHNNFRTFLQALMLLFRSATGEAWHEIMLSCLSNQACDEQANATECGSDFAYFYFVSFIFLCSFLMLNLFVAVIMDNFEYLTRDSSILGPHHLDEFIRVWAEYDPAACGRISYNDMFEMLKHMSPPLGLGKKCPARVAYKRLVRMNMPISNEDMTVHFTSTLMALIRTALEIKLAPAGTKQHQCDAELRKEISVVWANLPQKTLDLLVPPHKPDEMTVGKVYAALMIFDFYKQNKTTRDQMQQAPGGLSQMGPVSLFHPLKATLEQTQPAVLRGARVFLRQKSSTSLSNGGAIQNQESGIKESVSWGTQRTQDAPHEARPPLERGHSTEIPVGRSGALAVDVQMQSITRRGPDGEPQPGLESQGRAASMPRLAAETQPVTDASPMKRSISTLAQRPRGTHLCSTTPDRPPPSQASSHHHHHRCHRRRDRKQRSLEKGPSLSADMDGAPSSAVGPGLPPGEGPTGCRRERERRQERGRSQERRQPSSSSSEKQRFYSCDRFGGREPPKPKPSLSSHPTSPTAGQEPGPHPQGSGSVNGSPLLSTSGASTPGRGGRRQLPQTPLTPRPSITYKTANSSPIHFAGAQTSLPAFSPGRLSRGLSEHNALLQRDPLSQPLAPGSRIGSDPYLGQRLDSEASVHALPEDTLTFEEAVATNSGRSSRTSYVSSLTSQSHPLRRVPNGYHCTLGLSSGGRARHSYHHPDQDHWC
- Sequence (P54284 whole entry partner): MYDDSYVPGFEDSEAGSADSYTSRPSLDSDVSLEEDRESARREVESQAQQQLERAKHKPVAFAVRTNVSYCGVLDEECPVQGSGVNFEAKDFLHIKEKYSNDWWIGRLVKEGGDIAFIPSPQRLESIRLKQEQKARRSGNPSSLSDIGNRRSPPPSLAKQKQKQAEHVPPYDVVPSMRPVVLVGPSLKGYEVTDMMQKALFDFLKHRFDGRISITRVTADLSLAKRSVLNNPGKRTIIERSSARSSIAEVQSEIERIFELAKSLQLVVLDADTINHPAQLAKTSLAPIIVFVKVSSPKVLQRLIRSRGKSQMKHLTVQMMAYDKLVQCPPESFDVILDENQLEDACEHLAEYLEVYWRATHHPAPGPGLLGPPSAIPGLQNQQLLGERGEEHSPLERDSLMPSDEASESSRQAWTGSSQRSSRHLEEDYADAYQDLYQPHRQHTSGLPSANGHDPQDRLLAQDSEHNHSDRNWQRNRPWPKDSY
- Sequence (P54289 25-956 partner limits assumed): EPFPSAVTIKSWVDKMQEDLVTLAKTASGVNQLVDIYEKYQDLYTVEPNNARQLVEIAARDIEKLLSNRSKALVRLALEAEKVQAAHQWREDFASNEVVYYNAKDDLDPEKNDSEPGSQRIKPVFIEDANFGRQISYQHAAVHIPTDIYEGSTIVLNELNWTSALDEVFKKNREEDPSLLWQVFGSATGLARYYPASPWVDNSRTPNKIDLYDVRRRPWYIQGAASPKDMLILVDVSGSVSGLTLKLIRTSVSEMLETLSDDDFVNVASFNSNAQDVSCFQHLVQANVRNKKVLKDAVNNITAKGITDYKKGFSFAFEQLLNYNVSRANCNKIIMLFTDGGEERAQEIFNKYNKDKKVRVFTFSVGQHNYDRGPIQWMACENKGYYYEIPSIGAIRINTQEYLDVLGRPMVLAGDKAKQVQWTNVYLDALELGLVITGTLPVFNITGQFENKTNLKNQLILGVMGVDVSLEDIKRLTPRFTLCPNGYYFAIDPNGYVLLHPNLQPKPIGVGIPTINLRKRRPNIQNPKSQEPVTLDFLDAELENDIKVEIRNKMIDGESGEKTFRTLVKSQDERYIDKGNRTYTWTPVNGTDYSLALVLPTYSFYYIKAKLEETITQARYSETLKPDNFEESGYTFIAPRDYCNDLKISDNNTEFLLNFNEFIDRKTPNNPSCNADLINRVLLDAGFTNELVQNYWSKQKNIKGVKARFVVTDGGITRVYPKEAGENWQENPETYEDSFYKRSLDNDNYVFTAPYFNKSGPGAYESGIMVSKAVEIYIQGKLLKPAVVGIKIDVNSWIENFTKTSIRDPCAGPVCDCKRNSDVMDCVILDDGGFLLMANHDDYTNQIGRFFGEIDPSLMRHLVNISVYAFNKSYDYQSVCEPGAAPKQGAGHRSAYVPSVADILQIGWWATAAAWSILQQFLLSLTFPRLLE
- Sequence (P54289 957-1103 partner limits assumed): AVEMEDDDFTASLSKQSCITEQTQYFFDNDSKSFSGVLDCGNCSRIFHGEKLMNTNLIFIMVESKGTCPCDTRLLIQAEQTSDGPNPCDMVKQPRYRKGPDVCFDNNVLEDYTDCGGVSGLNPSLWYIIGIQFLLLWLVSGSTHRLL
- RUN_DESCRIPTION: Automated electrophysiology assay (QPatch-HT whole-cell patch clamp)
- Type: cell-based
- EXPERIMENTAL_SETUP: 0.1 μM; high frequency (15th pulse of train, 5 Hz); read-out: QPatch at High Frequency % Inhibition

{"MOLECULE": "CCOc1ccccc1-n1nc2c(c1-c1ccc(Cl)cc1)CN(S(=O)(=O)C1CCCC1)C2 [Cpd 51]", "inhibition at 0.1 µM, %": 47}
{"MOLECULE": "CC1CCN(S(=O)(=O)N2Cc3nn(-c4cccc5c4OCC5)c(-c4ccc(Cl)cc4)c3C2)CC1 [Cpd 86]", "inhibition at 0.1 µM, %": 33}
{"MOLECULE": "COc1ccccc1-n1nc2c(c1-c1ccc(Cl)cc1)CN(S(=O)(=O)N1CCOCC1)C2 [Cpd 59]", "inhibition at 0.1 µM, %": 51}
{"MOLECULE": "CC1CCN(S(=O)(=O)N2Cc3nn(-c4cccc5c4OCO5)c(-c4ccc(Cl)cc4)c3C2)CC1 [Cpd 83]", "inhibition at 0.1 µM, %": 27}
{"MOLECULE": "COc1ccccc1-n1nc2c(c1-c1ccc(Cl)cc1)CN(S(=O)(=O)CCNS(=O)(=O)C(C)C)C2 [Cpd 45]", "inhibition at 0.1 µM, %": 26}
{"MOLECULE": "CCOc1ccccc1-n1nc2c(c1-c1ccc(Cl)cc1)CN(S(=O)(=O)C(C)C)C2 [Cpd 50]", "inhibition at 0.1 µM, %": 50}
{"MOLECULE": "CC(C)S(=O)(=O)N1Cc2nn(-c3cccc4c3OCC4)c(-c3ccc(Cl)cc3)c2C1 [Cpd 84]", "inhibition at 0.1 µM, %": 7}
{"MOLECULE": "COc1ccccc1-n1nc2c(c1-c1ccc(Cl)cc1)CN(S(=O)(=O)N1CCCCC1)C2 [Cpd 62]", "inhibition at 0.1 µM, %": 45}
{"MOLECULE": "COc1ccccc1-n1nc2c(c1-c1ccc(Cl)cc1)CN(S(=O)(=O)CCNS(=O)(=O)N(C)C)C2 [Cpd 46]", "inhibition at 0.1 µM, %": -6}
{"MOLECULE": "COc1ccccc1-n1nc2c(c1-c1ccc(Cl)cc1)CN(S(=O)(=O)N1C[C@H](C)O[C@@H](C)C1)C2 (mixture of isomers) [Cpd 61]", "inhibition at 0.1 µM, %": 50}
{"MOLECULE": "CC(C)CS(=O)(=O)N1Cc2nn(-c3cccc4c3OCC4)c(-c3ccc(Cl)cc3)c2C1 [Cpd 85]", "inhibition at 0.1 µM, %": 37}
{"MOLECULE": "CN(C)S(=O)(=O)N1Cc2nn(-c3ccccc3OCC(F)F)c(-c3ccc(Cl)cc3)c2C1 [Cpd 95]", "inhibition at 0.1 µM, %": 23}
{"MOLECULE": "CC(C)S(=O)(=O)N1Cc2nn(-c3ccccc3N(C)C)c(-c3ccc(Cl)cc3)c2C1 [Cpd 88]", "inhibition at 0.1 µM, %": 47}
{"MOLECULE": "CCCC(C)S(=O)(=O)N1Cc2nn(-c3ccccc3OC)c(-c3ccc(Cl)cc3)c2C1 (stereo not shown) [Cpd 41]", "inhibition at 0.1 µM, %": 40}
{"MOLECULE": "COC(=O)C1CCN(S(=O)(=O)N2Cc3nn(-c4ccccc4OC)c(-c4ccc(Cl)cc4)c3C2)CC1 [Cpd 58]", "inhibition at 0.1 µM, %": 52}
{"MOLECULE": "CCOc1ccccc1-n1nc2c(c1-c1ccc(Cl)cc1)CN(S(=O)(=O)N(C)C)C2 [Cpd 54]", "inhibition at 0.1 µM, %": 46}
